Lab note: pIC50 readings collected with MMP-2 (Homo sapiens, UniProt P08253) for the following molecules.
Sequence (P08253 110-660): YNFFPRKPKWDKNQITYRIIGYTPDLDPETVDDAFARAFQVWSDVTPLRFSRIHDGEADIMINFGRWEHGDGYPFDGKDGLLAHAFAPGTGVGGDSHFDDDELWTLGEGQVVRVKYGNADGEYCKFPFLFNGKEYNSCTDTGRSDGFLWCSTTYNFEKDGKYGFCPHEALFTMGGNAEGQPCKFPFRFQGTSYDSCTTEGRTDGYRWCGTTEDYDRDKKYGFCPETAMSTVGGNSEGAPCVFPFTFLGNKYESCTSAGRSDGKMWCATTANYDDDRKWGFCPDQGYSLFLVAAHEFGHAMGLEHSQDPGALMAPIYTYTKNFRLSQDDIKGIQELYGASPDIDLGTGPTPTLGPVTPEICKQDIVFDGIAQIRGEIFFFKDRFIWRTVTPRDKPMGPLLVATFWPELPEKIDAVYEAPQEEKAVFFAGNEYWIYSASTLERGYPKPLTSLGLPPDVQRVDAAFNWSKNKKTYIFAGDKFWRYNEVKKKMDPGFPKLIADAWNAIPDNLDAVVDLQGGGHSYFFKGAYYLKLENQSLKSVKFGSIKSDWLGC
pIC50: −log10 of the molar value.

MOLECULE | pIC50
O=C(c1ccc(-c2ccc(Cl)cc2)cc1)C1CCC(Cn2c(=O)oc3ccccc32)C1C(=O)O (stereo not shown) | 9.30
O=C(c1ccc(-c2ccc(Cl)cc2)cc1)C1CCC(CSC(=S)N2CCCC2)C1C(=O)O (stereo not shown) | 7.68
O=C(CC(CCn1nnc2ccccc2c1=O)C(=O)O)c1ccc(-c2ccc(Cl)cc2)cc1 (single isomer, unassigned) [Example 20] | 7.24
O=C(c1ccc(-c2ccc(Cl)cc2)cc1)C1CCC(Cn2ncc3ccccc3c2=O)C1C(=O)O (stereo not shown) | 8.85
O=C(CC(CCn1ncc2ccccc2c1=O)C(=O)O)c1ccc(-c2ccc(Cl)cc2)cc1 (stereo not shown) | 7.89
O=C(CC(CCn1nnc2ccccc2c1=O)C(=O)O)c1ccc(-c2ccc(Cl)cc2)cc1 (single isomer, unassigned) [Example 21] | 8.82
O=C(O)C1[C@H](COCOCc2ccccc2)CC[C@@H]1C(=O)c1ccc(-c2ccc(Cl)cc2)cc1 (relative stereo) | 8.02
